# Tested on: MCF-7 cells
# Measurement Description: Inhibition of growth of MCF-7 cells
# Format: cell-based, human
# Applied Conditions: human nonmetastatic breast cancer epithelial cells
Assay Endpoint: IC50 (µM)
Use µM as the unit, but write only the number.

Return IC50 measured with MCF-7 cells given this compound: `COc1cc(C(=O)c2cn(-c3ccc(S(N)(=O)=O)cc3)c3ccccc23)cc(OC)c1OC`
3.6

###

# System: SW480 cells
# Measurement Description: Inhibition of growth of SW480 cells (XTT)
# Applied Conditions: read-out: IC50 SW480; human colorectal carcinoma cells; combinations: each compound at its IC50 concentration
Assay Endpoint: IC50 (µM)
Use µM as the unit, but write only the number.

Fill blank: measured IC50 of the compound `COc1cc(C(=O)c2cn(-c3ccc(S(N)(=O)=O)cc3)c3ccccc23)cc(OC)c1OC` is ____.
37.4
